- system: pre-existing anti-scFv903 antibodies in human serum H79 (human)
- measurement-notes: competition ADA bridging ELISA
Recorded signal change in competition ELISA (% reduction in OD) values for a group of binders are listed next.
measured-metric: signal change in competition ELISA (% reduction in OD) (%)

• scFv 791 (scFv) scFv: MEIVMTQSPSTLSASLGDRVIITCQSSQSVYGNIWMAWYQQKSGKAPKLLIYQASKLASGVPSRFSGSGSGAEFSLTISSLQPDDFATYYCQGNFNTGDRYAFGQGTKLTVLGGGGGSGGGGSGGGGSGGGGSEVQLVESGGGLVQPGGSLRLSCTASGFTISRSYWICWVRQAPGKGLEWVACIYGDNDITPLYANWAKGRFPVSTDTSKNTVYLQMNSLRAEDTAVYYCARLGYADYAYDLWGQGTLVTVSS = -97
• scFv105 (scFv) scFv: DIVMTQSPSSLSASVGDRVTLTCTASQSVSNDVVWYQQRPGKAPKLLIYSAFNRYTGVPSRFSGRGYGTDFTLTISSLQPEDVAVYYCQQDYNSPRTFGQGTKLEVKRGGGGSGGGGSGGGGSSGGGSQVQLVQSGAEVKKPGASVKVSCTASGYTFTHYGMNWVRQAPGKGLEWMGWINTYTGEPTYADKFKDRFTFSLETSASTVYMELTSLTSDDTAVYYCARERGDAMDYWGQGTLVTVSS = -41
• scFv 961 (scFv) scFv: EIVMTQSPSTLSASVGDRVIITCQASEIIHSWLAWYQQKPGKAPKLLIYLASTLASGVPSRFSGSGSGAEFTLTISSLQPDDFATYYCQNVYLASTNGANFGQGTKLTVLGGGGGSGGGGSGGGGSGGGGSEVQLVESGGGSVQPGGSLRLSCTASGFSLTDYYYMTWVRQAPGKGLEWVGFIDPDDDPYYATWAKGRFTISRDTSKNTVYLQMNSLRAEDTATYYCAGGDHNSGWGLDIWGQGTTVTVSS = -74
• scFv 903 (scFv) scFv: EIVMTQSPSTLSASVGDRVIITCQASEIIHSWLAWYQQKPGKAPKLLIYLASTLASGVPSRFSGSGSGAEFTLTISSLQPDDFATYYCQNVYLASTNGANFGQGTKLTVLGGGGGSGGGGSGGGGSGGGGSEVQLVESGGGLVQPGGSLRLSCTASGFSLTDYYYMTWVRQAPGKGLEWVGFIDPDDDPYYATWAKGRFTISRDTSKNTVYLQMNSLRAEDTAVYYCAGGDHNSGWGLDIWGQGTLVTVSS = -97
